Each record here notes measured vesicle binding response.
Assay: inhibitors of CD8+ T cell-vesicle binding, pilot screen, LFA-1/ICAM-1 modulator project, MLPCN validation set, flow cytometry (AID 2523);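 also: mean PE anti-B7-1 fluorescence of CD8+ cells relative to row control; 100% = QL9-loaded vesicles with DMSO vehicle in the same plate row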
Conditions: 2C mouse CD8+ T cells, at 7 µM, active compounds read low

compound: CC[N+](C)(C)Cc1ccccc1Br
vesicle binding response (%): 185
--
compound: CC(C)NC(=O)C1(c2ccccc2)CCOCC1
vesicle binding response (%): 191
--
compound: CCOC(=O)Cc1c(C)nc(N)[nH]c1=O
vesicle binding response (%): 276
--
compound: O=C(NNC(=O)c1cccs1)c1ccco1
vesicle binding response (%): 159
--
compound: COc1cc(OC)c(C2C(C#N)=C(N)OC3=C2C(=O)CC(C)(C)C3)cc1OC (configuration not stated)
vesicle binding response (%): 137
--
compound: Cc1oc2cc(O)ccc2c(=O)c1Oc1ccccc1Br
vesicle binding response (%): 172
--
compound: CC(=O)CCc1oc2ccccc2c1-c1ccccc1
vesicle binding response (%): 172

###

Each record here notes measured binding (% of control).
System: anti-desmoglein-3 scFv antibody binding to human DSG3
Assay: inhibitors of anti-DSG3 scFv binding to DSG3, pilot screen, biochemical, validation compound set, bead-based, flow cytometry (AID 588368);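 also: signal is the median channel fluorescence of bead-bound GFP antibody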
Conditions: Protein G beads, DSG3-Fc, scFv-GFP binding, at 10 µM, active compounds read low
Peptide text beside a SMILES is read from it. * marks the point of attachment. Boc = CC(C)(C)OC(=O)*; OBn = c1ccc(CO*)cc1
test readout: binding (% of control) (%)

compound: O=C(O)C[C@@H](O)C(=O)O
experimental value: 102

compound: CC(C)Cn1c(=S)[nH]c2cc(C(=O)O)ccc2c1=O
experimental value: 96.7

compound: COc1ccc(Cl)cc1C(=O)NCCc1ccc(S(=O)(=O)NC(=O)NC2CCCCC2)cc1
experimental value: 101

compound: O=C(c1ccccc1)N1CCN(C(=O)c2ccccc2)CC1
experimental value: 104

compound: Cn1c(=O)c2c(ncn2CC(O)CO)n(C)c1=O (stereo not drawn)
experimental value: 81.7

compound: CCCC1O[C@@H]2C[C@H]3[C@@H]4CCC5=CC(=O)C=C[C@]5(C)[C@H]4[C@@H](O)C[C@]3(C)[C@]2(C(=O)CO)O1 (stereo partly drawn)
experimental value: 104

compound: CCCN(CCC)S(=O)(=O)c1ccc(C(=O)O)cc1
experimental value: 99.3

compound: C[C@H](NC(=O)NCCc1ccccc1)C(=O)O
experimental value: 99.1

compound: COc1ccc(S(=O)(=O)N2CCN(C(=O)COc3ccc4c(C)cc(=O)oc4c3)CC2)cc1
experimental value: 103

compound: Cc1ncc([N+](=O)[O-])n1CC(O)CCl (stereo not drawn)
experimental value: 105

compound: CC(C)CC(NC(=O)C(NC(=O)OC(C)(C)C)C(C)C)C(=O)NC(CCC(=O)OCc1ccccc1)C(N)=O (stereo not drawn) (Boc-Val-Leu-Glu(OBn)-NH2; configuration not given here)
experimental value: 101

compound: CN(CCCN1CCOCC1)Cc1cn(C)nc1-c1ccccc1F
experimental value: 112

compound: C=CCn1c(SCC(=O)NC2CCCCC2)nc2ccccc2c1=O
experimental value: 99.2

compound: O=C(NCCN1CCOCC1)c1ccc(Cl)cc1
experimental value: 105

compound: COc1ccc(-c2[nH]ncc2C=O)cc1OC
experimental value: 101

compound: O=[N+]([O-])c1cc(/C=N/n2cnnc2)ccc1N1CCCC1
experimental value: 96.4

compound: CNCCc1ccccn1
experimental value: 100

compound: CC(=O)Nc1ccc(OS(=O)(=O)c2c(C)cc(C)cc2C)cc1
experimental value: 102

compound: C[C@@H]1C[C@H]2[C@@H]3CCC4=CC(=O)C=C[C@]4(C)[C@@]3(F)[C@@H](O)C[C@]2(C)[C@H]1C(=O)CO
experimental value: 97.8

compound: COc1ccc(CCn2c(C)cc3c(c2=O)C(c2ccncc2)C(C#N)=C(N)O3)cc1OC (stereo not drawn)
experimental value: 101

compound: CCOC(=O)c1ccc2[nH]c(C)c(CCC(C)=O)c(=O)c2c1
experimental value: 108

compound: CCCNC(=O)NS(=O)(=O)c1ccc(Cl)cc1
experimental value: 102

compound: COc1cccc(OC2OC3COC(C)(C)OC3C(O)C2NC(C)=O)c1 (stereo not drawn)
experimental value: 103

compound: COC1(C)CC2C(CC1OC(=O)c1cc([N+](=O)[O-])cc([N+](=O)[O-])c1)C2(C)C (stereo not drawn)
experimental value: 99.3

compound: COc1ccc2c(c1OC)C(=O)NC(C)=C(C(=O)OC(C)(C)C)C2O (stereo not drawn)
experimental value: 103

compound: O=C(O)c1ccccc1O
experimental value: 104

compound: Cc1nnc(SCC(=O)N2CCCC(C(=O)c3ccc(Cl)cc3)C2)o1 (stereo not drawn)
experimental value: 105

compound: CC(=O)OCC(=O)[C@H]1CC[C@H]2[C@@H]3CC=C4C[C@@H](O)CC[C@]4(C)[C@H]3CC[C@]12C
experimental value: 101

compound: O=C(O)c1cc(-c2ccccc2)nc2ccccc12
experimental value: 96.2

compound: CN(C)CCOc1ccc(Cl)cc1C(C)(C)C
experimental value: 99.5

compound: CCOC(=O)C1(CCCc2ccccc2)CCN(C2CCN(C(C)=O)CC2)CC1
experimental value: 109

compound: CC1(C)O[C@@H]2C[C@H]3[C@@H]4CCC5=CC(=O)C=C[C@]5(C)[C@@]4(F)[C@@H](O)C[C@]3(C)[C@]2(C(=O)CO)O1
experimental value: 107

compound: Fc1cc(F)cc(NC(=S)NCCCN2CCOCC2)c1
experimental value: 107

compound: O=C(Nc1c(C(=O)O)[nH]c2ccccc12)NC1CCCCC1
experimental value: 101

compound: CC[N+](C)(CC)CCOC(=O)C(O)(c1ccccc1)C1CCCCC1 (stereo not drawn)
experimental value: 98.5

compound: Cc1cnc(C(=O)N2CCCC(C(=O)c3ccc(Cl)cc3C)C2)cn1 (stereo not drawn)
experimental value: 101

compound: C/C(=N/N1CCN(Cc2cccc3ccccc23)CC1)c1cccnc1
experimental value: 100

compound: COc1cc(C2CC(=O)NC3=C2C(=O)CC(C)(C)C3)ccc1O (stereo not drawn)
experimental value: 96.5

compound: CC(C)NC[C@@H](O)c1ccc(O)c(O)c1
experimental value: 97.3

compound: CCOC(=O)COc1ccc2c(=O)c(-c3ccccc3)coc2c1
experimental value: 100

compound: CC(C)(C)[C@]1(O)CCN2C[C@H]3c4ccccc4CCc4cccc(c43)[C@@H]2C1
experimental value: 106

compound: COc1ccc2oc(=O)c(C(=O)N3CCN(c4ccccc4)CC3)cc2c1
experimental value: 101

compound: O=P(c1ccccc1)(c1ccccc1)c1nc(-c2ccc(Cl)cc2)oc1N1CCOCC1
experimental value: 105

###

Assay: inhibitors of fungal efflux pumps CDR1, CDR2, MDR1, pilot screen, validation compound set, multiplex, phenotypic (AID 588506);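 also: Nile Red retained in cells so higher fluorescence means more efflux inhibition; 0 = negative control wells and 1 = enniatin B 25 µM full block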
Conditions: S. cerevisiae pump-expressing triplex, Nile Red efflux flow cytometry; at 10 µM; active compounds read high; the pumps come from Candida albicans
Rule: efflux inhibition (fraction of control) below 0.06 gives 1. Equal to or above 0.06 gives -1.

compound: CCOC(=O)c1ccc2[nH]c(C)c(CCC(C)=O)c(=O)c2c1
assigned category: 1

compound: O[C@@H](CNC[C@H](O)c1ccccc1)c1ccccc1
assigned category: 1

compound: COc1ccc(N2C(=O)C3CCCN3C2=O)cc1 (configuration not stated)
assigned category: -1

compound: NCCOc1ccccc1OCCN
assigned category: 1

compound: CC(C)CN1CC(C(=O)O)CC1=O (configuration not stated)
assigned category: 1

compound: COc1cccc(N2CC34C=CC(O3)C(C(=O)O)C4C2=O)c1 (configuration not stated)
assigned category: -1

###

Tested on: anti-desmoglein-3 scFv antibody binding to human DSG3
Assay: inhibitors of anti-DSG3 scFv binding to DSG3, pilot screen, biochemical, validation compound set, bead-based, flow cytometry (AID 588368);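 also: signal is the median channel fluorescence of bead-bound GFP antibody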
Conditions: Protein G beads, DSG3-Fc, scFv-GFP binding, at 10 µM, active compounds read low
Each record here notes measured binding (% of control).

compound: O=C(c1ccc([N+](=O)[O-])cc1)N1CCSC1c1ccccc1Cl (stereo not given)
target under test: anti-desmoglein-3 scFv antibody binding to human DSG3
units label: %
binding (% of control): 101

compound: CCN(CC)CCN1C(=O)C(=O)/C(=C(/O)c2c(C)[nH]c(C(=O)OC)c2C)C1c1cccnc1 (stereo not given)
target under test: anti-desmoglein-3 scFv antibody binding to human DSG3
units label: %
binding (% of control): 103

compound: COc1ccc(S(=O)(=O)NC(Cc2cnc[nH]2)C(=O)O)cc1 (stereo not given)
target under test: anti-desmoglein-3 scFv antibody binding to human DSG3
units label: %
binding (% of control): 99.1

compound: COc1ccc(CNC(=O)c2cc3c(=O)n4ccccc4nc3n(Cc3cccnc3)c2=N)cc1
target under test: anti-desmoglein-3 scFv antibody binding to human DSG3
units label: %
binding (% of control): 112

compound: CCN(CC)C(=S)SSC(=S)N(CC)CC
target under test: anti-desmoglein-3 scFv antibody binding to human DSG3
units label: %
binding (% of control): 100
